Data export: MIC values recorded with E. coli HH 33779.
Counter-ions that a name gives are not always drawn.
Report the value in µg/mL with no unit label.

Reference set, count: 4
{"MOLECULE": "CO/N=C(\\C(=O)N[C@@H]1C(=O)N2C(C(=O)O)=C(COC(N)=O)CS[C@H]12)c1ccco1 [Cefuroxime, reference compound]", "TGT": "E. coli HH 33779", "MEASUREMENT_UNITS": "µg/mL", "MIC": 6.3}
{"MOLECULE": "Cc1nnc(SCC2=C(C(=O)O)N3C(=O)[C@@H](NC(=O)Cn4cnnn4)[C@H]3SC2)s1 [Cefazolin, reference compound]", "TGT": "E. coli HH 33779", "MEASUREMENT_UNITS": "µg/mL", "MIC": 1.6}
{"MOLECULE": "O=C(O)C1=C(CSc2nnnn2CS(=O)(=O)O)CS[C@@H]2[C@H](NC(=O)/C(=N\\O)c3ccccc3)C(=O)N12 [Compound C, disodium salt]", "TGT": "E. coli HH 33779", "MEASUREMENT_UNITS": "µg/mL", "MIC": 3.1}
{"MOLECULE": "CO/N=C(\\C(=O)N[C@@H]1C(=O)N2C(C(=O)O)=C(CSc3nnnn3CS(=O)(=O)O)CS[C@H]12)c1ccco1 [A, disodium salt hydrate]", "TGT": "E. coli HH 33779", "MEASUREMENT_UNITS": "µg/mL", "MIC": 1.6}

Look up MIC with E. coli HH 33779 for this molecule: CO[C@@]1(NC(=O)Cc2cccs2)C(=O)N2C(C(=O)O)=C(COC(N)=O)CS[C@@H]21 [Cefoxitin, reference compound] 12.5

Look up MIC with E. coli HH 33779 for this molecule: CO/N=C(\C(=O)N[C@@H]1C(=O)N2C(C(=O)O)=C(CSc3nnnn3CS(=O)(=O)O)CS[C@H]12)c1ccccc1 [Compound B, disodium salt] 6.3
